For each entry below, report its MIC value.
Test system: Aspergillus ochraceus
Assay: Antifungal activity against Aspergillus ochraceus ATCC 12066 after 72 hrs by serial dilution method
Assay type: functional
Conditions: ATCC 12066, 72 h
Answers are plain numbers, in µM.

O=C(NN1C(=O)CSC1c1ccccc1)c1nsc2ccccc12 (configuration not stated)	28
O=C(Cc1nsc2ccccc12)N/N=C/c1c(F)cccc1Cl	116
O=C(NN1C(=O)CSC1c1cccc(Cl)c1)c1nsc2ccccc12 (configuration not stated)	102
O=C(Cc1nsc2ccccc12)NN1C(=O)CSC1c1ccccc1 (configuration not stated)	54

I would be grateful if you could provide MIC for each of the following entries.
1. O=C(NN1C(=O)CSC1c1c(F)cccc1Cl)c1nsc2ccccc12 (configuration not stated)
2. O=C(Cc1nsc2ccccc12)NN1C(=O)CSC1c1ccccc1Cl (configuration not stated)
3. O=C(Cc1nsc2ccccc12)NN1C(=O)CSC1c1ccc(Cl)cc1 (configuration not stated)
4. O=C(Cc1nsc2ccccc12)NN1C(=O)CSC1c1cccc(Cl)c1 (configuration not stated)

Reply:
[368, 100, 100, 74]

I would be grateful if you could provide MIC for each of the following entries.
1. O=C(NN1C(=O)CSC1c1ccc(F)cc1)c1nsc2ccccc12 (configuration not stated)
2. O=C(Cc1nsc2ccccc12)NN1C(=O)CSC1c1c(F)cccc1Cl (configuration not stated)
3. O=C(NN1C(=O)CSC1c1cccc(F)c1)c1nsc2ccccc12 (configuration not stated)
4. O=C(NN1C(=O)CSC1c1c(F)cccc1F)c1nsc2ccccc12 (configuration not stated)

Reply:
[402, 98, 292, 51]
